Tested on: lesions of the mucous membrane of the stomach
protocol_description: Ethanol test (mucosa-protective activity)
Format: in vivo
test_settings: Rattus norvegicus; male rats, oral 30 min before absolute ethanol; dosage reducing number of lesions by 50%; read-out: Ethanol Test ID 50
Method: The experimental procedure described hereinafter was used to determine the mucosa-protective property: The oral administration of absolute ethanol to male rats in a dosage of 1 ml per rat leads within 1 hour to bloody lesions of the mucous membrane of the stomach. […] One hour after the administration of the ethanol the animals are killed, their stomachs are investigated for the presence of lesions and the number and the total dimension of such lesions are determined. […]
Form field: ED50 (one value per entry).
measurement_label: ED50 (mg/kg)

INSERT INTO assay_data (molecule, measurement_label, experimental_result) VALUES
  ('CCOC(C)OCC#CC(=O)c1ccc(F)cc1 (stereo not drawn)', 'ED50', 1.4),
  ('COCCOCCOC(=O)C#CC(=O)c1cc(OC)c(OC)c(OC)c1', 'ED50', 2.9),
  ('O=C(C#CCO)c1ccc(F)cc1', 'ED50', 0.9),
  ('COc1ccc(C(=O)C#CC(=O)O)cc1', 'ED50', 1.4),
  ('COCCOCCOC(=O)C#CC(=O)c1ccc(OC)cc1', 'ED50', 2.1),
  ('COCCOCCOC(=O)C#CC(=O)c1ccc2c(c1)OCO2', 'ED50', 2.3),
  ('COC(=O)C#CC(O)c1ccc2c(c1)OCO2 (stereo not drawn)', 'ED50', 1.4),
  ('COC(=O)C#CC(=O)c1ccc(OC)c(OC)c1OC', 'ED50', 2.1),
  ('O=C(C#CCO)c1ccc2c(c1)OCO2', 'ED50', 1.1),
  ('CSc1ccc(C(=O)C#CCO)cc1', 'ED50', 1),
  ('COc1ccc(C(=O)C#CC(=O)O)c(OC)c1OC', 'ED50', 3.4),
  ('COC(=O)C#CC(=O)c1cc(OC)ccc1OC', 'ED50', 2.2);
